Values from ChEMBL document CHEMBL4699593

// reported solubility thermodynamic at 20 h per item
test.method.notes: Aqueous solubility of compound in phosphate buffer saline at pH 6.5 incubated for 20 hrs under shaking condition by shake-flask method based HPLC-DAD analysis
Format: physicochemical
details: phosphate buffered saline
Just the number in µM, nothing appended.

Below are worked cases with known answers.
- CN1CCN(CC2CCN(c3nccc4[nH]c(-c5cccc(OCCN)c5)nc34)CC2)CC1: 200
- CN1CCN(CC2CCN(c3nccc4[nH]c(-c5ccc(F)c(Cl)c5)nc34)CC2)CC1: 155
- Fc1ccc(-c2nc3c(C4CCNCC4)nccc3[nH]2)cc1F: 200
- Fc1ccc(-c2nc3c(N4CCC(CN5CCOCC5)CC4)nccc3[nH]2)cc1F: 85

Could you now consider this next compound?
Prompt: Return solubility thermodynamic at 20 h for the following compound: CN1CCN(CC2CCN(c3nccc4[nH]c(-c5ccc(F)c(C(F)(F)F)c5)nc34)CC2)CC1
Completion: 165
